- Test system: JEG-3
- method: Primary qHTS to identify gynecologic anti-cancer compounds using libraries of approved drugs and bioactive compounds (AID 1345084); further: on the % scale 0 is the no-effect control and ±100 the full control effect; nearly all actives have a fitted effect of over 55% in size
- conditionsUsed: Gynecologic cancer cell panel viability, ATPlite luminescence, 48 h; series mostly up to 57.5 µM
Results filed as inconclusive are left out. The source made the active and inactive calls. The call rests on the fitted dose curve; in most records, active means well fitted cell-killing curve with a large enough effect; inconclusive means small, poorly fitted or top-dose-only effect, or effect the other way; inactive means flat fitted curve, though single readings scatter.
recordedEndpoint: activity change, negative = cytotoxicity

Some compounds with known activity change, negative = cytotoxicity results, for comparison:
{"columns": ["compound", "recordedEndpoint", "result"],
 "data": [
  ["CC1(C)CC[C@@]2(C(=O)O[C@@H]3O[C@H](CO)[C@@H](O)[C@H](O)[C@H]3O)C(C1)C1=CCC3[C@@]4(C)CC[C@@H](O[C@@H]5O[C@H](C(=O)O)[C@@H](O[C@@H]6OC[C@@H](O)[C@H](O)[C@H]6O)[C@H](O[C@@H]6OC[C@](O)(CO)[C@H]6O)[C@H]5O)C(C)(C)C4CC[C@@]3(C)[C@]1(C)C[C@H]2O (stereo partly drawn)", "activity change, negative = cytotoxicity", "-1.03% [at 11.6 µM] (inactive)"],
  ["CC1=C(C)C(=O)OC(C(C)C2CCC3C4CC=C5CC(OC6OC(COC7OC(CO)C(O)C(O)C7O)C(O)C(O)C6O)CC(O)C5(C)C4CCC23C)C1 (stereo not drawn)", "activity change, negative = cytotoxicity", "inactive"],
  ["C=CC(C)(O)C(O)CC1C(C)(O)C(O)C(O)C2C(C)(C)CCCC21C (stereo not drawn)", "activity change, negative = cytotoxicity", "inactive"],
  ["CC(C)CC1NC(=O)C2CC3(O)c4ccccc4NC3N2C1=O (stereo not drawn)", "activity change, negative = cytotoxicity", "inactive"],
  ["C/C=C(/COC(=O)/C(C)=C/C)C(=O)OC(CC)c1ccc(OC)c(OC)c1 (stereo not drawn)", "activity change, negative = cytotoxicity", "inactive"]
]}

For every item below, please supply its activity change, negative = cytotoxicity.
1. COC(=O)C1=COC(OC2OC(CO)C(O)C(O)C2O)C2C1C=CC2(O)CO (stereo not drawn)
2. Cc1cccc(S(=O)(=O)N2CCC[C@@H]2CCN2CCC(C)CC2)c1
3. COc1cc(Nc2nc3c(s2)CCCC3c2ccc(F)cc2)ccc1-n1cnc(C)c1 (stereo not drawn)
4. C[C@@H]1O[C@@H](O[C@H]2[C@H](O)[C@@H](O)[C@H](O[C@H]3[C@H](O[C@H]4CC[C@@]5(C)C(=CC[C@@H]6C5CC[C@]5(C)[C@@H]7[C@H](C[C@@H]65)O[C@]5(CC[C@@](C)(CO[C@@H]6O[C@H](CO)[C@@H](O)[C@H](O)[C@H]6O)O5)[C@H]7C)C4)O[C@H](CO)[C@@H](O)[C@@H]3O)O[C@@H]2CO)[C@H](O)[C@H](O)[C@H]1O (stereo partly drawn)
5. C[C@@]12C[C@]3(O)O[C@H](O1)[C@]1(COC(=O)c4ccccc4)[C@H]3C[C@@]12O[C@@H]1O[C@H](CO)[C@@H](O)[C@H](O)[C@H]1O
6. CC(=O)C=C=C1C(C)(C)CC(O[C@@H]2O[C@H](CO)[C@@H](O)[C@H](O)[C@H]2O)CC1(C)O (stereo partly drawn)

A:
inactive
inactive
inactive
4.71% [at 11.6 µM] (inactive)
inactive
inactive

Please give activity change, negative = cytotoxicity, item by item, for the list that follows.
1. Nc1nc2c(ncn2[C@@H]2O[C@@H]3COP(=O)(O)O[C@H]3[C@H]2O)c(=O)[nH]1
2. COc1ccc(/C=C/C(=O)O[C@@H]2[C@@H](O)[C@H](C)O[C@@H](O[C@H]3[C@@H]4C=CO[C@@H](O[C@H]5O[C@@H](CO)[C@H](O)[C@@H](O)[C@@H]5O)[C@@H]4[C@@]4(CO)O[C@@H]34)[C@@H]2OC(C)=O)cc1

A:
["inactive", "inactive"]
